# assayed-target: DarmCSP2 (Dendroctonus armandi)
# Sequence (A0A3S7PYZ0 entry or part of it): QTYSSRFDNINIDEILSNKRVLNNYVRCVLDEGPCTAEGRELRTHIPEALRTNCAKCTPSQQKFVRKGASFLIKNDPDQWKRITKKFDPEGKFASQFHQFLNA
measurement-type: IC50 (µM)
Answers are plain numbers, in µM.

Completed entries (count: 3):
CC1=CC[C@H](C(C)C)C=C1 [(R)-(-)-a-Phellandrene]
8.77
CC1=C[C@H](O)[C@@H]2C[C@H]1C2(C)C (relative stereo) [(-)-trans-Verbenol]
4.33
C=C(C)[C@H]1CC=C(C)CC1 [(R)-(+)-Limonene]
6.36

# batch: return IC50 for each of the 3 molecules below
1. CC1=CCC2CC1C2(C)C (stereo not drawn) [(–)-α-Pinene]
2. CC[C@@H]1O[C@]2(C)CCC[C@H]1O2 (racemic) [(±)-exo-Brevicomin]
3. CC1=CCC2C(C1)C2(C)C (single isomer, unassigned; (+)) [(+)-3-Carene]

// result
[2.53, 14.5, 3.05]
